Listed below: pIC50 values for each entry.
- target.system: Phosphatidylinositol 4,5-bisphosphate 3-kinase catalytic subunit alpha isoform (Homo sapiens, UniProt P42336)
- Sequence (P42336 whole entry, canonical isoform): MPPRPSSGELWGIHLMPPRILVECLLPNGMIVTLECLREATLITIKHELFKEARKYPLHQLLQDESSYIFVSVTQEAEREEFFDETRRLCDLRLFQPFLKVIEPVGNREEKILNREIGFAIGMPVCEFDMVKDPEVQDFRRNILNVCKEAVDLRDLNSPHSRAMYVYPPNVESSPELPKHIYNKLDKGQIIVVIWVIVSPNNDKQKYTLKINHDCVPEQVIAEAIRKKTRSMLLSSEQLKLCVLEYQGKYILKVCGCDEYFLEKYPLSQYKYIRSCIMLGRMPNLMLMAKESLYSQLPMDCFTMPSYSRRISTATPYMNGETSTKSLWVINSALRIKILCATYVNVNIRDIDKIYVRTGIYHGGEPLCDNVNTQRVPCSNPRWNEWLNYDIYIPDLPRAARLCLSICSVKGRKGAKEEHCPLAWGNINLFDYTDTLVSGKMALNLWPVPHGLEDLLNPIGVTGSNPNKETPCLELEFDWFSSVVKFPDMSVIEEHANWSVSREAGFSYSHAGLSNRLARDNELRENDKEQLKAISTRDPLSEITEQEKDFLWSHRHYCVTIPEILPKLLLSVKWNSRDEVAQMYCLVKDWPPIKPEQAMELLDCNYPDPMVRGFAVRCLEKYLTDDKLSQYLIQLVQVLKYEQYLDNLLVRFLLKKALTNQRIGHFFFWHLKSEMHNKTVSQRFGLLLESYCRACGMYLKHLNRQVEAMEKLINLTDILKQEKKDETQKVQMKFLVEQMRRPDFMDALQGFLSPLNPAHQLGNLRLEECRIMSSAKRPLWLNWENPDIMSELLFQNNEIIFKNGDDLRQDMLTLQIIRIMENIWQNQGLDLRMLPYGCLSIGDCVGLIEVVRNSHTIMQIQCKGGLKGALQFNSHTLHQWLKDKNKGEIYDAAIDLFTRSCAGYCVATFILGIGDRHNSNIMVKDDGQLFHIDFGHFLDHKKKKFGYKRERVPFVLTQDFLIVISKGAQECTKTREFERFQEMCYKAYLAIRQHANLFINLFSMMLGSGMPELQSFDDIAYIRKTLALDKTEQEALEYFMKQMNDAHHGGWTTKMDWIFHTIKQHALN
- method.notes: Inhibition of PI3K alpha
pIC50: −log10 of the molar value.
measured.endpoint: pIC50

• CC1(C)Cc2nc(N3CCOc4ccc(Br)cc43)sc2C(=O)N1 = 5.96
• Cc1ccc(-c2ccc3c(c2)N(c2nc4c(s2)C(=O)CC(C)(C)C4)CCO3)cn1 = 6.79
• CC1(C)Cc2nc(N3CCOc4ccc(-c5ccn[nH]5)cc43)sc2C(=O)N1 = 6.04
• Cc1nc(-c2ccc3c(c2)N(c2nc4c(s2)C(=O)NC(C)(C)C4)CCO3)c[nH]1 = 6.20
• COc1ccc2c(c1)OCCN2c1nc2c(s1)C(=O)NC(C)(C)C2 = 5.95
• CC1(C)CC(=O)c2sc(N3CCOc4ccc(-c5cn[nH]c5)cc43)nc2C1 = 6.73
• Cc1ccc(-c2ccc3c(c2)N(c2nc4c(s2)C(=O)NC(C)(C)C4)CCO3)cn1 = 6.94
• CC1(C)Cc2nc(N3CCOc4ccc(-c5cnc[nH]5)cc43)sc2C(=O)N1 = 6.13
• CC1(C)CC(=O)c2sc(N3CCOc4ccc(-c5ccccn5)cc43)nc2C1 = 6.17
• CC1(C)CC(=O)c2sc(N3CCOc4ccc(-c5ccccc5)cc43)nc2C1 = 5.57
